# System: MCF-7
# EXPERIMENTAL_PROTOCOL: MTT anti-proliferative assay, MCF-7
# Format: cell-based, human
# PROTOCOL_CONDITIONS: Homo sapiens, MCF7; MCF-7, 1.563 umol
PROPERTY: viability at 1.563 µmol (%)
Report only the number, with the unit % understood.

Example results:
# CPD_SMILES, viability at 1.563 µmol [%]
data = [
    ("O=C(Cn1cnc2cc(Cl)ccc2c1=O)Nc1ccccc1Cl", 12),
    ("O=C(Cn1cnc2cc([N+](=O)[O-])ccc2c1=O)Nc1ccc(Cl)cc1", 27.7),
    ("O=C(Cn1cnc2cc(Cl)ccc2c1=O)Nc1ccc(Cl)cc1", 13.1),
    ("O=C(Cn1cnc2cc([N+](=O)[O-])ccc2c1=O)Nc1ccccc1Cl", 11.9),
    ("O=C(Cn1cnc2cc([N+](=O)[O-])ccc2c1=O)Nc1ccc(F)c(Cl)c1", 13.7),
    ("O=C(Cn1cnc2cc([N+](=O)[O-])ccc2c1=O)Nc1ccccc1", 13.5),
    ("O=C(Cn1cnc2cc(Cl)ccc2c1=O)Nc1ccc(F)c(Cl)c1", 19),
]

Moving on to another compound below.
QUERY: Fill in: viability at 1.563 µmol of O=C(Cn1cnc2cc(Cl)ccc2c1=O)Nc1ccccc1 is ___
RESULT: 28.5

----------
# Tested on: K-562
# EXPERIMENTAL_PROTOCOL: MTT anti-proliferative assay, K-562
# Type: cell-based, human
# PROTOCOL_CONDITIONS: Homo sapiens, K562; MTT, K-562; read-out: Cytotoxicity against cancer cells IC50 K-562
PROPERTY: IC50 (nM)
Report only the number, with the unit nM understood.

Example results:
# COMPOUND, ASSAYED_TARGET, UNIT_STRING, READOUT_NUMBER
data = [
    ("O=C(Cn1cnc2cc([N+](=O)[O-])ccc2c1=O)Nc1ccc(F)c(Cl)c1 [9e]", "K-562", "nM", 347),
    ("O=C(Cn1cnc2cc([N+](=O)[O-])ccc2c1=O)Nc1ccc(Cl)cc1 [9c]", "K-562", "nM", 539),
    ("CNC(=O)c1cc(Oc2ccc(NC(=O)Nc3ccc(Cl)c(C(F)(F)F)c3)cc2)ccn1 [Sorafenib, sorafenib, reference compound]", "K-562", "nM", 60.6),
]

QUERY: Fill in: IC50 of O=C(Cn1cnc2cc(Cl)ccc2c1=O)Nc1ccc(F)c(Cl)c1 [8e] is ___
RESULT: 266

QUERY: Fill in: IC50 of O=C(Cn1cnc2cc([N+](=O)[O-])ccc2c1=O)Nc1ccccc1Cl [9b] is ___
RESULT: 190

QUERY: Fill in: IC50 of O=C(Cn1cnc2cc(Cl)ccc2c1=O)Nc1ccc(Cl)cc1 [8c] is ___
RESULT: 544

QUERY: Fill in: IC50 of O=C(Cn1cnc2cc([N+](=O)[O-])ccc2c1=O)Nc1ccccc1 [9a] is ___
RESULT: 386

QUERY: Fill in: IC50 of O=C(Cn1cnc2cc(Cl)ccc2c1=O)Nc1ccccc1 [8a] is ___
RESULT: 188

QUERY: Fill in: IC50 of O=C(Cn1cnc2cc(Cl)ccc2c1=O)Nc1ccccc1Cl [8b] is ___
RESULT: 464

----------
Entries and their IC50 values follow.
# System: HEK-293
# EXPERIMENTAL_PROTOCOL: MTT cytotoxicity against normal cells
# Assay type: cell-based, human
# PROTOCOL_CONDITIONS: Homo sapiens, HEK293; raw data, HEK-293
Report only the number, with the unit µM understood.

# COMPOUND, IC50, µM
rows = [
    ("CNC(=O)c1cc(Oc2ccc(NC(=O)Nc3ccc(Cl)c(C(F)(F)F)c3)cc2)ccn1 [Sorafenib, sorafenib, reference compound]", 131),
]

Moving on to another compound below.
QUERY: Fill in: IC50 of O=C(Cn1cnc2cc([N+](=O)[O-])ccc2c1=O)Nc1ccccc1Cl [9b] is ___
RESULT: 1.75

----------
Entries and their cytotoxicity at 25 µmol values follow.
# Tested on: MCF-7
# EXPERIMENTAL_PROTOCOL: MTT anti-proliferative assay, MCF-7
# Format: cell-based, human
# PROTOCOL_CONDITIONS: Homo sapiens, MCF7; MCF-7, 25 umol; read-out: Toxicity %
Report only the number, with the unit % understood.

Example results:
# CPD_SMILES, ASSAYED_TARGET, UNIT_STRING, cytotoxicity at 25 µmol
data = [
    ("O=C(Cn1cnc2cc([N+](=O)[O-])ccc2c1=O)Nc1ccccc1", "MCF-7", "%", 93.6),
    ("O=C(Cn1cnc2cc(Cl)ccc2c1=O)Nc1ccccc1", "MCF-7", "%", 92.7),
    ("O=C(Cn1cnc2cc([N+](=O)[O-])ccc2c1=O)Nc1ccc(F)c(Cl)c1", "MCF-7", "%", 93.5),
    ("O=C(Cn1cnc2cc([N+](=O)[O-])ccc2c1=O)Nc1ccc(Cl)cc1", "MCF-7", "%", 93.2),
    ("O=C(Cn1cnc2cc(Cl)ccc2c1=O)Nc1ccccc1Cl", "MCF-7", "%", 93.3),
]

QUERY: Fill in: cytotoxicity at 25 µmol of O=C(Cn1cnc2cc([N+](=O)[O-])ccc2c1=O)Nc1ccccc1Cl is ___
RESULT: 93.2

QUERY: Fill in: cytotoxicity at 25 µmol of O=C(Cn1cnc2cc(Cl)ccc2c1=O)Nc1ccc(F)c(Cl)c1 is ___
RESULT: 93.5

QUERY: Fill in: cytotoxicity at 25 µmol of O=C(Cn1cnc2cc(Cl)ccc2c1=O)Nc1ccc(Cl)cc1 is ___
RESULT: 93.4

----------
# Tested on: K-562
# EXPERIMENTAL_PROTOCOL: MTT anti-proliferative assay, K-562
# Format: cell-based, human
# PROTOCOL_CONDITIONS: Homo sapiens, K562; K-562, 0.781 umol; read-out: Toxicity %
Entries and their cytotoxicity at 0.781 µmol values follow.
Report only the number, with the unit % understood.

Example results:
# CPD_SMILES, cytotoxicity at 0.781 µmol / %
records = [
    ("O=C(Cn1cnc2cc([N+](=O)[O-])ccc2c1=O)Nc1ccccc1", 69.2),
    ("O=C(Cn1cnc2cc(Cl)ccc2c1=O)Nc1ccccc1", 78),
    ("O=C(Cn1cnc2cc(Cl)ccc2c1=O)Nc1ccc(F)c(Cl)c1", 68.4),
    ("O=C(Cn1cnc2cc([N+](=O)[O-])ccc2c1=O)Nc1ccc(F)c(Cl)c1", 73.4),
    ("O=C(Cn1cnc2cc(Cl)ccc2c1=O)Nc1ccccc1Cl", 72.6),
]

QUERY: Fill in: cytotoxicity at 0.781 µmol of O=C(Cn1cnc2cc([N+](=O)[O-])ccc2c1=O)Nc1ccc(Cl)cc1 is ___
RESULT: 66.4

QUERY: Fill in: cytotoxicity at 0.781 µmol of O=C(Cn1cnc2cc(Cl)ccc2c1=O)Nc1ccc(Cl)cc1 is ___
RESULT: 65.6

QUERY: Fill in: cytotoxicity at 0.781 µmol of O=C(Cn1cnc2cc([N+](=O)[O-])ccc2c1=O)Nc1ccccc1Cl is ___
RESULT: 74.5

----------
# EXPERIMENTAL_PROTOCOL: MTT cytotoxicity against normal cells
# Assay type: cell-based, human
# PROTOCOL_CONDITIONS: human, HEK-293 cells (normal human embryonic kidney); HEK-293, 0.195 umol/ml
PROPERTY: viability at 3 days, 0.195 umol/ml (%)
Report only the number, with the unit % understood.

QUERY: Fill in: viability at 3 days, 0.195 umol/ml of O=C(Cn1cnc2cc([N+](=O)[O-])ccc2c1=O)Nc1ccccc1Cl [9b] is ___
RESULT: 98.1

----------
# ASSAYED_TARGET: VEGFR-2 (Homo sapiens, UniProt P35968)
# Sequence (P35968 20-1356): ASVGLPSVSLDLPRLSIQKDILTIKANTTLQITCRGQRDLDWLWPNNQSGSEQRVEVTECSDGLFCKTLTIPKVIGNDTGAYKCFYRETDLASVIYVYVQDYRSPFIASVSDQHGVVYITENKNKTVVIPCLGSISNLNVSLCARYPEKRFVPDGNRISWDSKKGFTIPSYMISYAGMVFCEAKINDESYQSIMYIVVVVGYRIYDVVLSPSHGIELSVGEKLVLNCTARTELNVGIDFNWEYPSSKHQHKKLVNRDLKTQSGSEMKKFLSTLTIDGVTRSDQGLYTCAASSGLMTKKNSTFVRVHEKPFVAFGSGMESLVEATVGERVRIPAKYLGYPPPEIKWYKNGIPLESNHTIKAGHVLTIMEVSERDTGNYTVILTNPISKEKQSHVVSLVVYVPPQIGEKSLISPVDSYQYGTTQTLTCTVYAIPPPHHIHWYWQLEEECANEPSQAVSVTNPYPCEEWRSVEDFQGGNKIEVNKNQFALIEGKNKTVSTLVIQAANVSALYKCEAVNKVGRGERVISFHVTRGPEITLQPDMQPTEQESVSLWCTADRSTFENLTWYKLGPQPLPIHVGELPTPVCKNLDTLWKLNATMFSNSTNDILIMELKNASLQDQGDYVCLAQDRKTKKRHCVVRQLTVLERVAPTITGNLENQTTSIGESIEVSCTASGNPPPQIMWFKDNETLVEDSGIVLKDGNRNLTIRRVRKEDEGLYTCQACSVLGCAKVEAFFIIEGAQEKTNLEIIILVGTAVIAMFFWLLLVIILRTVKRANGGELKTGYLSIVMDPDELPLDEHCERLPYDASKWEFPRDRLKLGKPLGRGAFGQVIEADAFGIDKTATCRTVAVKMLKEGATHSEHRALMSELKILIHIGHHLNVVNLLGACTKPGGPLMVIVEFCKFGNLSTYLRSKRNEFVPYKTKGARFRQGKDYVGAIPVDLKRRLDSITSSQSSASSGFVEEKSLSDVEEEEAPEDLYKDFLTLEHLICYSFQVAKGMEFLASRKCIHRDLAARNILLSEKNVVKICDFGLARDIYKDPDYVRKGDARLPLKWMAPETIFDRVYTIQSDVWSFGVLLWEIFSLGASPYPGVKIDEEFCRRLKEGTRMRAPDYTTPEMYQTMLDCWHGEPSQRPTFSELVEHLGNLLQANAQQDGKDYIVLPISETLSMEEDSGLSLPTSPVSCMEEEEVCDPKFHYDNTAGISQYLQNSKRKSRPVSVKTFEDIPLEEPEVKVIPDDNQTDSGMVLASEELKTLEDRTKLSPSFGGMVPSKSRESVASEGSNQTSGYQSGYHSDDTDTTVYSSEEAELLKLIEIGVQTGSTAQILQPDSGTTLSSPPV
# EXPERIMENTAL_PROTOCOL: In vitro VEGFR-2 inhibitory assay (ELISA kit)
# PROTOCOL_CONDITIONS: VEGFR-2 kinase, K-562
PROPERTY: Activity % (%)
Report only the number, with the unit % understood.

Example results:
# MOLECULE, PROPERTY, READOUT_NUMBER
rows = [
    ("O=C(Cn1cnc2cc([N+](=O)[O-])ccc2c1=O)Nc1ccccc1Cl [9b]", "Activity %", 56.948),
    ("O=C(Cn1cnc2cc([N+](=O)[O-])ccc2c1=O)Nc1ccccc1 [9a]", "Activity %", 35.983),
    ("O=C(Cn1cnc2cc(Cl)ccc2c1=O)Nc1ccccc1 [8a]", "Activity %", 37.495),
]

Moving on to another molecule below.
QUERY: Fill in: Activity % of O=C(Cn1cnc2cc(Cl)ccc2c1=O)Nc1ccccc1Cl [8b] is ___
RESULT: 21.332

Numbers sourced from paper PMC12377202.
